Target: CDK4/CyclinD1 (Homo sapiens, UniProt P11802)
Sequence (P11802 whole entry, species assumed): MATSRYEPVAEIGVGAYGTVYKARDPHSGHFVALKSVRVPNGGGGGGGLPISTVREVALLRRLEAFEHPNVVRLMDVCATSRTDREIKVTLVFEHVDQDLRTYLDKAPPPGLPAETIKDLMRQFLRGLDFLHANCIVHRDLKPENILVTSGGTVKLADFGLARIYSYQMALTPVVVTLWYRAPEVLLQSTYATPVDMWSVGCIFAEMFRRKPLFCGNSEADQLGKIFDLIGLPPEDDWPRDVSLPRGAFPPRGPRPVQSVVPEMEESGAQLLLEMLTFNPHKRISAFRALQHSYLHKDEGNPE
Sequence (P24385 whole entry partner, species assumed): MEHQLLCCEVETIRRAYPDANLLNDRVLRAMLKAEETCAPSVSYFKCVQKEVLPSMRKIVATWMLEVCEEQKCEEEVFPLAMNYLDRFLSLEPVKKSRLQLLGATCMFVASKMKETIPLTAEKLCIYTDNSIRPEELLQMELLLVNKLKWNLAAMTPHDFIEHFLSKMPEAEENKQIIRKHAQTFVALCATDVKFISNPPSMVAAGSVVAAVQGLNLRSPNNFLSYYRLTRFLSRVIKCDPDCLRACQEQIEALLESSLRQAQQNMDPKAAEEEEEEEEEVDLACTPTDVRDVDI
Assay: CDK4/CyclinD1 Flashplate assay, 96-well format, biotinylated-Rb peptide substrate
// classify: if (IC50 < 1000 nM) Condition met else Condition not met

COC(=O)Nc1nc2cc(OS(=O)(=O)c3cccc(F)c3)ccc2[nH]1 [Example 62-r]; Condition not met
COC(=O)Nc1nc2cc(OS(=O)(=O)c3ccc(NCCO)cc3)ccc2[nH]1 [Example 1]; Condition not met
CC(C)NCCNC(=O)Nc1nc2cc(OS(=O)(=O)c3ccc(NC4CCCC4)cc3)ccc2[nH]1 [Example 58-al]; Condition met
COCC(C)NC(=O)Nc1nc2cc(OS(=O)(=O)c3ccc(NCC4CCCO4)cc3)ccc2[nH]1 (stereo not shown) [Example 59-e]; Condition not met
CC(CO)NC(=O)Nc1nc2cc(OS(=O)(=O)c3ccc(NC4CCCC4)cc3)ccc2[nH]1 (stereo not shown) [Example 58-ak]; Condition met
CC(C)(N)CNC(=O)Nc1nc2cc(OS(=O)(=O)c3ccc(NC4CCCC4)cc3)ccc2[nH]1 [Example 58-w]; Condition met

Consider NC(=O)C1CCCN1C(=O)Nc1nc2cc(OS(=O)(=O)c3ccc(NC4CCCC4)cc3)ccc2[nH]1 (stereo not shown) [Example 58-ae] . Does its IC50 lie strictly below 1000 nM? Condition not met

These entries and their values trace back to patent US20050014811A1.
